The reported measurements were obtained from patent US20180036441A1.

The reader will find reported geometric mean values listed item by item below.
Molecular target: T1, MUC1 on HCT116/MUC1 cells (UniProt P15941 24-1255, limits assumed)
T1 construct: whole, on cells; also called MUC1 overexpressed cell line
T1 sequence (P15941 24-1255 limits assumed): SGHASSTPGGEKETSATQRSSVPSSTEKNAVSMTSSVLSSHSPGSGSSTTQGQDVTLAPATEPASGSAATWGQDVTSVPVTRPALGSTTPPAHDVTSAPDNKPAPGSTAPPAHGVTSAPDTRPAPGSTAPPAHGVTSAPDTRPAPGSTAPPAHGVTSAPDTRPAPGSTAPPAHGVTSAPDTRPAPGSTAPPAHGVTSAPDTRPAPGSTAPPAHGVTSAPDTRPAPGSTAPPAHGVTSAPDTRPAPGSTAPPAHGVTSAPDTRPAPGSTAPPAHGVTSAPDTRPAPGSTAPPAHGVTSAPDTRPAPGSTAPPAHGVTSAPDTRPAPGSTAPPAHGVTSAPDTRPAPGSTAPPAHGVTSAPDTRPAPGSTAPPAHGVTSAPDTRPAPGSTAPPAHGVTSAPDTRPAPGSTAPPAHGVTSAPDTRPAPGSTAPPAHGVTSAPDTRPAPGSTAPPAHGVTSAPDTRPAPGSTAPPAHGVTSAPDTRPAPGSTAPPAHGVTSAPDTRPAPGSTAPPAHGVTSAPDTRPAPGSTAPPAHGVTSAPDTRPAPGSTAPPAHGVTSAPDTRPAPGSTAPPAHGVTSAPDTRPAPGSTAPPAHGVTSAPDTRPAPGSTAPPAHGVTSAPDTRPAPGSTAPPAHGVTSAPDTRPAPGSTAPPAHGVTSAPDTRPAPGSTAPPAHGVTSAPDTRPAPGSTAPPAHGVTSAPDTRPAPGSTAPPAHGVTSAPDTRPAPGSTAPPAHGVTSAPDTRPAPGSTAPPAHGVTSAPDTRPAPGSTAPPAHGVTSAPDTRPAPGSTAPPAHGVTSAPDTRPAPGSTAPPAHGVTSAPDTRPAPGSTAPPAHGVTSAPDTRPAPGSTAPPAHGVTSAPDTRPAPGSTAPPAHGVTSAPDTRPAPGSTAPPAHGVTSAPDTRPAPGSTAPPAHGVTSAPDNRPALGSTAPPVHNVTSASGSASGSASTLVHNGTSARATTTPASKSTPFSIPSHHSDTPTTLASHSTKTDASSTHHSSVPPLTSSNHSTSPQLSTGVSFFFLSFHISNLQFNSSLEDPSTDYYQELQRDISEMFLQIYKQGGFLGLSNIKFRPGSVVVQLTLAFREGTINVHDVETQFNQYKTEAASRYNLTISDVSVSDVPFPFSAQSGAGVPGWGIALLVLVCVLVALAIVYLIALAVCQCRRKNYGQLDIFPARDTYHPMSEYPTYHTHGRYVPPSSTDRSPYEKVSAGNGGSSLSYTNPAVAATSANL
Test: FACS titration, HCT116/MUC1 cells, antibody at 0.488 nM
measure-name: geometric mean

# binder, measure-name, experimental-value
rows = [
    ("VH2 + VL4 (antibody, V domains shown, Humanized IgG expressed in HEK293; also called humanized antibody VH2+VL4) VH: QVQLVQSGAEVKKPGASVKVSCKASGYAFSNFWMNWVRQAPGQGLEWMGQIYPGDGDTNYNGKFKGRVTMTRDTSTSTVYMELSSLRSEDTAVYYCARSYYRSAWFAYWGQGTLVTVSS VL: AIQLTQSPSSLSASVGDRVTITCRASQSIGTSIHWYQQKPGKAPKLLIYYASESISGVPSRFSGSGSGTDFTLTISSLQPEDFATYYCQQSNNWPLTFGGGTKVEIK", "geometric mean", 3.16),
    ("VH1 + VL4 (antibody, V domains shown, Humanized IgG expressed in HEK293; also called humanized antibody VH1+VL4) VH: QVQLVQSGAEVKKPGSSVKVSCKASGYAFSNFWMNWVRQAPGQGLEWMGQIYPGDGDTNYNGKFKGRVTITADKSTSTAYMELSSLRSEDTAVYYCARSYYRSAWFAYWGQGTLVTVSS VL: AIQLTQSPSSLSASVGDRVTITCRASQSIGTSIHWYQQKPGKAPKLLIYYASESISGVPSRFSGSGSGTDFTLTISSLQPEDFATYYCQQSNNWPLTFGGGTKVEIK", "geometric mean", 2.85),
    ("VH5 + VL1 (antibody, V domains shown, Humanized IgG expressed in HEK293; also called humanized antibody VH5+VL1) VH: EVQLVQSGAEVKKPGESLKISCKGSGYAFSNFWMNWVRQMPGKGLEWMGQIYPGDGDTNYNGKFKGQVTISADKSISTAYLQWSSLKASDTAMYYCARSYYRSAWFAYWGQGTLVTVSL VL: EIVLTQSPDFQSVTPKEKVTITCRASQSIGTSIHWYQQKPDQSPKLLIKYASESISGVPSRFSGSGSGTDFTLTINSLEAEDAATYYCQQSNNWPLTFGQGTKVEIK", "geometric mean", 2.93),
]
